Entries and their growth
# System: NCI-H522 lung
# METHOD: NCI-60 one-dose screen, 48 h (100 = growth as untreated, 0 = no growth, -100 = all killed)
# STUDY_CONDITIONS: 10 µM unless noted
Compounds without any hit were thinned out: in the full panel of roughly 83,000, 20% have a hit. The source made the active and inactive calls. How the source made its calls: active means growth percent below 10; inactive means the rest.

Cc1cn(-c2nc3c(c(NCc4ccccc4)n2)COCC3)c2cccc(C(N)=O)c12 ... 69.5% [0.5 µM] (inactive)
COc1ccc(-c2cc3ccc(N(C)C)cc3nc2N)c(F)c1 ... 31% (inactive)
C=C1C(=O)O[C@H]2[C@H]1CC/C(C(=O)NCCOCCOCC(=O)Nc1ccc(OC)c(C(N)=O)c1O)=C\CC[C@@]1(C)O[C@@H]21 ... 26.1% (inactive)
O=C1C(Cl)=C(Nc2ccccc2)C(=O)C(Cl)=C1Nc1ccccc1 ... 112% (inactive)
C/C(=N/O)c1ccc(NC(=O)Cn2nc(-c3ccc(Cl)cc3)nc2N)cc1 ... 68.7% (inactive)
COc1ccc(-c2nnc(SCC(=O)N3CCN(c4cc5c(cc4F)c(=O)c(C(=O)O)cn5C4CC4)CC3)o2)cc1OC ... 88.6% (inactive)
CCc1c(C)c2cc3nc(NCc4ccccc4)oc3c(C)c2oc1=O ... 45.5% (inactive)
CC/C(=C(\CC)c1ccc(OCCN(CC)CC)cc1)c1ccc(OCCN(CC)CC)cc1 ... 16.2% (inactive)

molecule Cc1cccc(NCS(=O)(=O)O)c1 , growth observed: 90.9% (inactive)

Value of growth reported for the molecule O=C(c1cc(-c2ccc(Cl)cc2)nc2ccccc12)N1N=C(c2ccccc2)CC1c1cc(-c2ccccc2)nn1-c1ccccc1 (centres undefined) is 80.8% (inactive)

The molecule listed as Cc1cn(C2CC(F)C(CO)O2)c(=O)[nH]c1=O (centres undefined) has a reported growth of 86% (inactive)

Field growth (entry c1nc(SC2=NCCN2)c2[nH]cnc2n1 ) reads 25% (inactive)

Kindly note the recorded growth for Cc1nc(N)nc(SCc2ccccc2)c1Br , which is 66.7% (inactive)

Form: molecule = CCN(CC)CCNc1ccc([N+](=O)[O-])c2sc3cc(Cl)ccc3c(=O)c12 ; growth = 49.4% (inactive)
